Origin of measurements: patent US20250213558A1

target: Human Cav3.1 calcium channel (Homo sapiens, UniProt O43497); construct: expressed in transfected cells; host or cells: HEK-293 natClytin/TASK1+Cav3.1 cell line; experiment: Human Cav3.1 calcium channel patch clamp assay (SyncroPatch 384PE; single point and IC50, voltage dependent block); type: cell-based; conditions: Testing Conc 1.25; HEK-293 natClytin/TASK1+Cav3.1 cell line, patch clamp
Sequence (O43497 whole entry): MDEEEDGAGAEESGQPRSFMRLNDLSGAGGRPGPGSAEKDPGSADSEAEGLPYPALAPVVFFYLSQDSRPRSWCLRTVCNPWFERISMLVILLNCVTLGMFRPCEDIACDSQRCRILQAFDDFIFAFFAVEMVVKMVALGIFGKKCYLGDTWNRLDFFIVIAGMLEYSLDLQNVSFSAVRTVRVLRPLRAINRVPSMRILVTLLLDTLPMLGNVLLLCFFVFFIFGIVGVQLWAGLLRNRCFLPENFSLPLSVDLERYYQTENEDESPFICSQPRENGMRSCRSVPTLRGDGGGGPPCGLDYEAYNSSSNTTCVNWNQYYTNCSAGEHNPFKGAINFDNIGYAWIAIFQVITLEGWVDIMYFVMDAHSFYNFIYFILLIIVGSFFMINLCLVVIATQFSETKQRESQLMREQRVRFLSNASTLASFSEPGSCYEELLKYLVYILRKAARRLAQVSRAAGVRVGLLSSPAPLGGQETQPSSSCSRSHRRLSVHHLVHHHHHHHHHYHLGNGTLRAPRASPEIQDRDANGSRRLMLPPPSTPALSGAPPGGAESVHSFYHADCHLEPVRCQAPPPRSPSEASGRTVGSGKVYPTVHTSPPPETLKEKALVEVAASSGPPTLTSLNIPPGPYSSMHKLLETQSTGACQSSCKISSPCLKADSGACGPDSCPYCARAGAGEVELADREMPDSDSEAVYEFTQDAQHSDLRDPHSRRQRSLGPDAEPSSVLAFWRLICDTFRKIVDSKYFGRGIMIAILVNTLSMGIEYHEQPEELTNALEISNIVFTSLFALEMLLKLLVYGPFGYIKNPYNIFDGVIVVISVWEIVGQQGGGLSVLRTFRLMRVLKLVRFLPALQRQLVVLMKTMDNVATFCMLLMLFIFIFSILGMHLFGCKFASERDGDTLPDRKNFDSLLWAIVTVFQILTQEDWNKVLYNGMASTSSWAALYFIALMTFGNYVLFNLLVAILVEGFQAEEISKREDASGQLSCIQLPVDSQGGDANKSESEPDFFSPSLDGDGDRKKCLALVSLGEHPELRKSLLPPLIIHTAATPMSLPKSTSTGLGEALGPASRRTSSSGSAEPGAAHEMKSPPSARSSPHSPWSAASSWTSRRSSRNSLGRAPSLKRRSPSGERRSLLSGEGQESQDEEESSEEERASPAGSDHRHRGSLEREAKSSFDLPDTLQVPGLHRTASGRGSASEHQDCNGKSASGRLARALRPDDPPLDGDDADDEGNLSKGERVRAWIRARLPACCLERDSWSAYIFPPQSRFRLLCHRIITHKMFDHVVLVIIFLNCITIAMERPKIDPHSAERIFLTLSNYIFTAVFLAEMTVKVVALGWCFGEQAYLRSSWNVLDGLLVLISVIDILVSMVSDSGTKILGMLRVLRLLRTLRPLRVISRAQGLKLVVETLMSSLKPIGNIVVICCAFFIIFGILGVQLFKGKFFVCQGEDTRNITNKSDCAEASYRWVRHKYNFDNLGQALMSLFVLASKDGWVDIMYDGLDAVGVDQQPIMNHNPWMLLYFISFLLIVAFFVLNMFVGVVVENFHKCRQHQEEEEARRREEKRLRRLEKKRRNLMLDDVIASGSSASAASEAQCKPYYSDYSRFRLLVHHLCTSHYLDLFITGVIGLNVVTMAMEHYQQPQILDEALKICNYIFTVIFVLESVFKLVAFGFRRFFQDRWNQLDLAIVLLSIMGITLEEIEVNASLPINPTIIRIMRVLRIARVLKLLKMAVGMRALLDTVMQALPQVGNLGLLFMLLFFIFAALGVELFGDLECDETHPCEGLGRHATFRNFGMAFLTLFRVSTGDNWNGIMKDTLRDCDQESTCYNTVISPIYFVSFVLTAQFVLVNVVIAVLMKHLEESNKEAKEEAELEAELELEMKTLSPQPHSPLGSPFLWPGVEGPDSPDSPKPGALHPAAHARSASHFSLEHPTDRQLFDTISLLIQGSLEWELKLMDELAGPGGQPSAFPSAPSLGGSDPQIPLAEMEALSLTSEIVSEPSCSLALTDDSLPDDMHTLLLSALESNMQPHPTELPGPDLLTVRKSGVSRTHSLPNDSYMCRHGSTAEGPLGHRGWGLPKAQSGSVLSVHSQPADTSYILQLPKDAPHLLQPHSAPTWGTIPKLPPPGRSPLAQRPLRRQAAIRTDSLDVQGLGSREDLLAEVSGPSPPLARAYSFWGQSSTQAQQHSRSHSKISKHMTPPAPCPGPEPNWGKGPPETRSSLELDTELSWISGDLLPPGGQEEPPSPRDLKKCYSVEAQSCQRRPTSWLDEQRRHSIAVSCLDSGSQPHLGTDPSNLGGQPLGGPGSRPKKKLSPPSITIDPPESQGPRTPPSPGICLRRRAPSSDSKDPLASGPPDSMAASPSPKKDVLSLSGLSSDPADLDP
% Inhibition (Single Point Data) strictly less than 80% = y. Otherwise n.

compound	assigned label
Fc1ccc(Cl)c2nc(CN3CCN(CC(F)(F)C4CCCCC4)CC3)[nH]c12 [Compound 154]	y
COc1cccc(NC(=O)CN2CC3CC2CN3CCNC(=O)C2(C(F)(F)F)CC2)c1 (centres unmarked) [Compound 237]	y
Cc1cc(CNC(=O)CN2C[C@@H]3C[C@H]2CN3CC(=O)NC(C)(C)C)nn1-c1ccccc1 [Compound 274]	y
CC(C)(C)NC(=O)CN1C[C@H]2C[C@@H]1CN2CC(=O)Nc1ccc(F)c(Cl)c1 [Compound 26]	y
CC(C)(C)NC(=O)CN1C[C@H]2CC[C@@H]1CN2CC(=O)Nc1ccc(F)c(Cl)c1 [Compound 269]	y
[2H]C([2H])([2H])C(NC(=O)CN1CC2CC1CN2CC(=O)Nc1cc(F)cc(Cl)c1)(C([2H])([2H])[2H])C([2H])([2H])[2H] (centres unmarked) [Compound 57]	n
O=C(CN1CC2CC(C1)N2CCNC(=O)C1(C(F)(F)F)CCC1)Nc1cc(F)cc(Cl)c1 [Compound 229]	n
CC(C)Cc1cc(CNC(=O)CN2CC3CC(C2)N3CC(=O)NC(C)(C)C)nn1-c1ccccc1 [Compound 301]	y
CC(C)(C)CCCN1C2CC1CN(Cc1nc3c(Cl)cc(F)cc3[nH]1)C2 [Compound 107]	n
Cc1cc(Cl)cc(NC(=O)CN2C[C@@H]3C[C@H]2CN3CC(=O)NC2(C(F)(F)F)CC2)c1 [Compound 327]	n
N#CC1(CN2C3CC2CN(Cc2nc4c(Cl)ccc(F)c4[nH]2)C3)CCCCC1 [Compound 178]	y
CC(C)(C)NC(=O)CN1C[C@@H]2C[C@H]1CN2CCNc1nccc2ccc(Cl)cc12 [Compound 60]	y
CC(C)(C)NC(=O)CN1C[C@@H]2C[C@H]1CN2CC(=O)NC12CCC(CC1)C2 [Compound 288]	y
Fc1cc(Cl)c2nc(CN3CC4CCC(C3)N4CCC3CCCC3)[nH]c2c1 [Compound 84]	n
CC(C)(C)NC(=O)CN1C2CC1CN(CC(=O)NC1CCCC(OC(F)F)C1)C2 (centres unmarked) [Compound 321]	y
CC(C)(C)NC(=O)CN1C2CCC1CN(Cc1nc3c(Cl)cc(C#N)cc3[nH]1)C2 [Compound 191]	n
CC(C)(C)NC(=O)CN1C[C@H]2CC[C@@H]1CN2CC(=O)Nc1cc(F)cc(Cl)c1 [Compound 268]	n
O=C(CN1CC2CC(C1)N2CCS(=O)(=O)c1ccccc1)Nc1cc(F)cc(Cl)c1 [Compound 171]	y
CC1(C)CCN1C(=O)CN1C[C@@H]2C[C@H]1CN2CC(=O)NC12CC3CC(CC(C3)C1)C2 [Compound 328]	y
CC(C)(C)NC(=O)CN1C[C@@H]2C[C@H]1CN2C(=O)NCC12CC3CC(CC(C3)C1)C2 [Compound 290]	y
CC(C)(C)NC(=O)CN1C2CCC1CN(Cc1nc(-c3ccccc3)c[nH]1)C2 [Compound 196]	n
C[C@H](NC(=O)CN1CC2CC(C1)N2CC(=O)NC(C)(C)C)C12CC3CC(CC(C3)C1)C2 [Compound 325]	y
CC1(NC(=O)CN2CC3CC2CN3CC(=O)Nc2ccc(F)c(Cl)c2)CC1 (centres unmarked) [Compound 234]	y
Cc1cc(NC(=O)CN2C[C@@H]3C[C@H]2CN3CC(=O)NC(C)(C)C)ccc1F [Compound 341]	y
CC(C(=O)Nc1ccc(F)c(Cl)c1)N1C[C@@H]2C[C@H]1CN2CC(=O)NC(C)(C)C (some centres unmarked) [Compound 264]	n
Cc1cc(F)cc2[nH]c(CN3CC4CC(C3)N4CCC3CCOCC3)nc12 [Compound 205]	y
N#CC1(CN2C3CC2CN(CC(=O)Nc2cc(F)cc(Cl)c2)C3)CCCCC1 [Compound 51]	y
COc1ccc(F)c(NC(=O)CN2CC3CC(C2)N3CC(=O)NC(C)(C)C)c1 [Compound 222]	y
CC(C)(NC(=O)CN1CC2CC1CN2Cc1nc2c(Cl)cc(F)cc2[nH]1)C(F)(F)F (centres unmarked) [Compound 125]	n
CC1(NC(=O)CN2C3CCC2CN(Cc2nc4c(Cl)cc(F)cc4[nH]2)C3)COC1 [Compound 82]	n

====

Biological target: Human Cav3.1 calcium channel (Homo sapiens)
Construct: expressed in transfected cells; host or cells: HEK-293 natClytin/TASK1+Cav3.1 cell line
Test: Human Cav3.1 calcium channel patch clamp assay (SyncroPatch 384PE; single point and IC50, voltage dependent block)
Format: cell-based
Conditions: Testing Conc 1.25; HEK-293 natClytin/TASK1+Cav3.1 cell line, patch clamp
Procedure: Certain compounds (as indicated) were tested for Human Cav3.1 calcium channel activity via a patch clamp assay as disclosed herein. Pulse generation and data collection were performed with PatchController384 V1.3.0 and DataController384 V1.2.1 (Nanion Technologies). […] Current was recorded in whole cell configuration from a population of cells. […] Currents were recorded at room temperature. […]
measurement kind: % Inhibition (Single Point Data)

> print(dat)
                                    compound                             tested.target  observed.measurement
 1  CC(C)(C)NC(=O)CN1C2CC1CN(CC(=O)Nc1cc(Cl)ccc1F)C2  Human Cav3.1 calcium channel (Homo sapiens)                39.34%
 2  CC(C)(NC(=O)CN1C2CC1CN(CC(=O)Nc1cc(F)cc(Cl)c1)C2)C(F)(F)F  Human Cav3.1 calcium channel (Homo sapiens)                89.48%
 3  CC(C)(C)NC(=O)CN1C2CC1CN(CC(=O)NCC13CC4CC(CC(C4)C1)C3)C2  Human Cav3.1 calcium channel (Homo sapiens)               34.765%
 4  CC(C)(C)NC(=O)CN1C2CC1CN(CC(=O)Nc1ccc(F)c(C(F)(F)F)c1)C2  Human Cav3.1 calcium channel (Homo sapiens)               99.326%
 5  CC(C)(C)NC(=O)CN1C2CCC1CN(CC(=O)NC13CC4CC(CC(C4)C1)C3)C2  Human Cav3.1 calcium channel (Homo sapiens)               64.635%
 6  Cn1nc(C2CC2)cc1NC(=O)CN1CC2CCC(C1)N2CC(=O)NC(C)(C)C  Human Cav3.1 calcium channel (Homo sapiens)               15.896%
 7  CC(C)(C)NC(=O)CN1C2CC1CN(CC(=O)Nc1cccc(Cl)c1)C2  Human Cav3.1 calcium channel (Homo sapiens)               81.305%
 8  CC(C)(C)NC(=O)CN1C2CCC1CN(Cc1nc3c(Cl)cc(F)cc3[nH]1)C2  Human Cav3.1 calcium channel (Homo sapiens)               100.15%
 9  OC(CN1CCN(Cc2nc3c(Cl)ccc(F)c3[nH]2)CC1)C1CCCCC1 (centres unmarked)  Human Cav3.1 calcium channel (Homo sapiens)               86.133%
10  Fc1cc(Cl)c2nc(CN3CCN(CCc4ccccc4)CC3)[nH]c2c1  Human Cav3.1 calcium channel (Homo sapiens)                86.68%
11  CC(C)(C)NC(=O)CN1C2CCC1CN(Cc1nc3c(C4CC4)cccc3[nH]1)C2  Human Cav3.1 calcium channel (Homo sapiens)               94.049%
12  CC(C)(C)NC(=O)CN1C[C@@H]2C[C@H]1CN2CC(=O)NC12CC3CC(CC(F)(C3)C1)C2  Human Cav3.1 calcium channel (Homo sapiens)               65.343%
13  COc1cccc(NC(=O)CN2CC3CC2CN3CCNC(=O)C2(C(F)(F)F)CCC2)c1 (centres unmarked)  Human Cav3.1 calcium channel (Homo sapiens)               65.449%
14  CC(C)(C)NC(=O)CN1C[C@@H]2CC[C@H]1CN2CC(=O)Nc1ccc(F)c(Cl)c1  Human Cav3.1 calcium channel (Homo sapiens)               70.509%
15  CC(C)(C)NC(=O)CN1C2CC1CN(CC(=O)Nc1cccc(OC(F)F)c1)C2  Human Cav3.1 calcium channel (Homo sapiens)               81.341%
16  Cc1cc(Cl)cc(NC(=O)CN2C[C@@H]3C[C@H]2CN3CC(=O)NC(C)(C)C)c1  Human Cav3.1 calcium channel (Homo sapiens)               94.657%
17  Cc1ccc(F)c2[nH]c(CN3CC4CC(C3)N4CC(=O)NC(C)(C)C)nc12  Human Cav3.1 calcium channel (Homo sapiens)               97.657%
